- TARGET_OR_TEST_SYSTEM: T1, recombinant human CD123-Fc (human, UniProt P26951 19-305)
- T1 construct: not shown: Fc part of CD123-Fc
- T1 sequence: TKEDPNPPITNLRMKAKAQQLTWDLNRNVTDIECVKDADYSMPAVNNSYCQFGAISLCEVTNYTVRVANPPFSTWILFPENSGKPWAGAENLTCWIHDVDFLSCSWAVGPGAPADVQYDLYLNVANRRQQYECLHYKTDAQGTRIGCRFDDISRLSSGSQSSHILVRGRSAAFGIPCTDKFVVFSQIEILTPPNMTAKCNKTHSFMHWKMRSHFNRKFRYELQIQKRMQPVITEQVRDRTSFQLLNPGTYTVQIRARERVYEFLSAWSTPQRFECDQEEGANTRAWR
- ASSAY_PROTOCOL: phage ELISA, captured CD123-Fc
READOUT_LABEL: ELISA_avg (ratio A450 target/IgG1-Fc)
Give the value, in units of ratio A450 target/IgG1-Fc, as a plain number.

The examples below pair each entry with its known result.
BINDER	READOUT_LABEL	EXPERIMENTAL_VALUE
SEQ ID NO: 375 (designed binder, D domain, on phage) MGSWYEFSNRLDAIGERLWALGGSEAELAAFEKEIAAFESELQAYKGKGNPEVEILRHQAAEIRWFLQAYRHN	ELISA_avg	3.9
SEQ ID NO: 506 (designed binder, D domain, on phage) MGSWQIFKGELAYIKQYLEALGGSEAELAFFEFDIAEFEEDLQYYKGKGNPEVEALRKEAAAIRDELQAYRHN	ELISA_avg	4.7
SEQ ID NO: 551 (designed binder, D domain, on phage) MGSWMEFDYRLEAIWMRLIALGGSEAELADFESSIADFEHHLQSYKGKGNPEVEALEWEAFAIGVELDAYRHN	ELISA_avg	3.1
SEQ ID NO: 558 (designed binder, D domain, on phage) MGSWNEFYERLEAIDRRLFALGGSEAELALFEWMIADFEDDLQMYKGKGNPEVEALINEAGAIGFELEAYRHN	ELISA_avg	5.2

// sample SEQ ID NO: 595 (designed binder, D domain, on phage) MGSWTEFDERLDAIDWRLEALGGSEAELAWFEGDIALFEQYLQVYKGKGNPEVEALMEEADAIKAELDAYRHN , its ELISA_avg was 4.5

// sample SEQ ID NO: 410 (designed binder, D domain, on phage) MGSWYEFAIRLDAIYERLHALGGSEAELAAFEKEIAAFESELQAYKGKGNPEVEYLRVWAANIRTELQAYRHN , its ELISA_avg was 25.5

// sample SEQ ID NO: 465 (designed binder, D domain, on phage) MGSWYVFKDELAEIKQFLEALGGSEAELAWFEDDIAEFETQLQHYKGKGNPEVEALRKEAAAIRDELQAYRHN , its ELISA_avg was 9.9
